Biological target: human α7 nAChRs transiently expressed in Xenopus laevis oocytes (Homo sapiens (Human), UniProt P36544)
Sequence (P36544 23-502 limits assumed): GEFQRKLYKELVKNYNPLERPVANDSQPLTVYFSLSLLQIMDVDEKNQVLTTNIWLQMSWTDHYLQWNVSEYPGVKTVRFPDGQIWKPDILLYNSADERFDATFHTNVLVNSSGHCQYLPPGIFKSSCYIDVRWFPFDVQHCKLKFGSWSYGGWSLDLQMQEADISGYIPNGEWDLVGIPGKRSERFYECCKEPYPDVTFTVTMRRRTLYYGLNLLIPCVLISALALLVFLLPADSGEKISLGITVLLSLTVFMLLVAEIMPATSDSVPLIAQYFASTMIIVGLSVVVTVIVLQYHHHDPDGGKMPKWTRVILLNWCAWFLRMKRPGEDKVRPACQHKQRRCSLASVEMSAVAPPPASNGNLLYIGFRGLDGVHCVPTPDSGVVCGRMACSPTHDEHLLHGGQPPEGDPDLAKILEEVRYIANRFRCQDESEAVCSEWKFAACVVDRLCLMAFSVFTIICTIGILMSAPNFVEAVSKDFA
Test: Oocyte electrophysiology screen (TEVC)
Assay type: cell-based
Settings: 0.01 mM test compound, peak current relative to 0.2 mM ACh
Description: Oocyte Electrophysiology Screen (% ACh @ 10 μM Oocyte) The Oocyte Electrophysiology Screen studies were performed under contract by HiQScreen Geneva, Switzerland. […] Currents evoked by acetylcholine or other agonist ligands were recorded using the standard two-electrode voltage-clamp configuration (TEVC). […] Data were filtered at 10 Hz, captured at 100 Hz and analyzed using proprietary data acquisition and analysis software running under Matlab (Mathworks Inc.). […]
Counter-ions that a name gives are not always drawn.
Label key: true (1) means % ACh @ 10 μM Oocyte under 5 % ACh; false (0) means % ACh @ 10 μM Oocyte of 5 % ACh or more.

{"columns": ["molecule", "classification"],
 "data": [
  ["CC1(C)[C@@H](NC(=O)c2cc3cccc(Cl)c3s2)C2CCN1CC2 [(S)-3, hydrochloride]", "false (0)"],
  ["Cc1nc2cc(C(=O)N[C@@H]3C4CCN(CC4)C3(C)C)ccc2s1 [(R)-34, hydrochloride]", "false (0)"],
  ["CC1(C)[C@@H](NC(=O)c2ccc3occc3c2)C2CCN1CC2 [(S)-6, hydrochloride]", "true (1)"],
  ["CC1(C)[C@H](NC(=O)c2ccc3ccsc3c2)C2CCN1CC2 [(R)-5, hydrochloride]", "false (0)"],
  ["CC1(C)[C@@H](NC(=O)c2cc3cc(F)ccc3s2)C2CCN1CC2 [(S)-11, hydrochloride]", "false (0)"],
  ["Cl.Cn1c(C(=O)N[C@@H]2C3CCN(CC3)C23CC3)cc2ccccc21 [(R)-254]", "false (0)"],
  ["O=C(N[C@@H]1C2CCN(CC2)C12CC2)c1cnn2ncccc12 [(R)-80, hydrochloride]", "true (1)"]
]}

----------
Measured % ACh @ 10 μM Oocyte by item
biological target: UniProtKB P36544; assay: Oocyte electrophysiology screen (TEVC); assay type: cell-based; conditions: 0.01 mM test compound, peak current relative to 0.2 mM ACh
Where a name gives a salt, the structure may show the parent alone.

{"columns": ["compound", "% ACh @ 10 μM Oocyte"],
 "data": [
  ["CC1(C)[C@@H](NC(=O)c2cc3c(cn2)OCCO3)C2CCN1CC2 [(S)-23, hydrochloride]", "0 % ACh"],
  ["Cc1nc2ccc(C(=O)N[C@@H]3C4CCN(CC4)C3(C)C)cc2s1 [(R)-35, hydrochloride]", "6 % ACh"],
  ["Cl.Cn1c(C(=O)N[C@@H]2C3CCN(CC3)C2(C)C)cc2ccccc21 [(R)-221]", "188 % ACh"],
  ["CC1(C)[C@H](NC(=O)c2cc3ccc(C#N)cc3s2)C2CCN1CC2 [(R)-9, hydrochloride]", "2 % ACh"],
  ["Cn1cnc2cc(C(=O)N[C@@H]3C4CCN(CC4)C34CC4)ccc21 [(R)-95, hydrochloride]", "0 % ACh"],
  ["O=C(N[C@@H]1C2CCN(CC2)C12CC2)c1cc2ccc(Br)cc2s1 [(R)-101, hydrochloride]", "412 % ACh"],
  ["CC1(C)[C@@H](NC(=O)c2cc3cccnc3s2)C2CCN1CC2 [(S)-28, hydrochloride]", "1 % ACh"],
  ["CC1(C)[C@H](NC(=O)c2cc3cccc(Cl)c3s2)C2CCN1CC2 [(R)-3, hydrochloride]", "304 % ACh"],
  ["CC1(C)[C@@H](NC(=O)c2cc3ccc(C#N)cc3s2)C2CCN1CC2 [(S)-9, hydrochloride]", "1 % ACh"],
  ["CC1(C)[C@@H](NC(=O)c2cc3cc(C4CC4)ccc3s2)C2CCN1CC2 [(S)-19, hydrochloride]", "3 % ACh"],
  ["CC1(C)[C@H](NC(=O)c2cc3cc(Cl)ccc3s2)C2CCN1CC2 [(R)-13, hydrochloride]", "132 % ACh"],
  ["CC1(C)[C@@H](NC(=O)c2cc3cc(Cl)c(Cl)cc3s2)C2CCN1CC2 [(S)-14, hydrochloride]", "3 % ACh"],
  ["CC1(C)[C@H](NC(=O)c2cc3ccc(N4CCOCC4)cc3s2)C2CCN1CC2 [(R)-44, hydrochloride]", "1 % ACh"],
  ["CC1(C)[C@H](NC(=O)c2cc3ccc(Cl)c(F)c3s2)C2CCN1CC2 [(R)-110, hydrochloride]", "444 % ACh"],
  ["Cc1nc2cc(C(=O)N[C@@H]3C4CCN(CC4)C34CC4)ccc2o1 [(R)-85]", "188 % ACh"],
  ["Cc1csc2ccc(C(=O)N[C@@H]3C4CCN(CC4)C34CC4)cc12 [(R)-77, hydrochloride]", "547 % ACh"],
  ["Cc1nc2cc(C(=O)N[C@@H]3C4CCN(CC4)C34CC4)ccc2s1 [(R)-87, hydrochloride]", "341 % ACh"]
]}
